Value source: patent US7718688B2

Each entry below lists one item and its recorded melting point value.
Where a name gives a salt, the structure may show the parent alone.

compound: COc1cc2cc(C(=O)N3CC(CCl)c4c3cc([N+](=O)[O-])c3cc(S(=O)(=O)NCCO)ccc43)[nH]c2c(OC)c1OC (centres unmarked)
melting point: 257 to 258 °C

Which melting point is listed for COc1cc2cc(C(=O)N3CC(CCl)c4c3cc([N+](=O)[O-])c3c(C(C)=O)cccc43)[nH]c2c(OC)c1OC (centres unmarked) ? 180 to 183 °C

Which melting point is listed for CC(=O)c1ccc2c([N+](=O)[O-])cc3c(c2c1)C(CCl)CN3C(=O)c1cc2cc(OCCN(C)C)ccc2[nH]1 (centres unmarked) ? 210 to 215 °C

Which melting point is listed for NS(=O)(=O)c1ccc2c3c(cc([N+](=O)[O-])c2c1)N(C(=O)c1cc2cc(OCCO)ccc2[nH]1)CC3CCl (centres unmarked) ? 231 to 234 °C

Which melting point is listed for CN(C)CCOc1ccc2[nH]c(C(=O)N3CC(CCl)c4c3cc([N+](=O)[O-])c3cc(C(=O)NCCO)ccc43)cc2c1 (centres unmarked) (as salt: HCl) ? 231 to 233 °C (dec.)

Which melting point is listed for CN(C)CCOc1ccc2[nH]c(C(=O)N3CC(CCl)c4c3cc([N+](=O)[O-])c3ccc(S(N)(=O)=O)cc43)cc2c1 (centres unmarked) ? 260 to 265 °C (dec.)
